Recorded T/C for the following compounds
System: P388 leukemia ip, CD2F1 mice, survival T/C
measurement.protocol: NCI In Vivo Anticancer Drug Screen. Data for tumor model P388 Leukemia (intraperitoneal) in CD2F1 (CDF1) mice
measurement.parameters: endpoint: median survival time; dose: 50.0 mg/kg/injection; schedule: Q04DX003 (ip); vehicle: saline; higher = longer survival
Toxic doses and inconclusive results are not listed.

CCSC(=O)N1CCN(C(=O)SCC)CC1 | 101 % of control
CN(C)CCCC#N | 100 % of control
CCN(CC)CCCOC(=O)c1ccc(N)cc1 | 87 % of control

Note to self: T/C recorded for O=S1(=O)CC2=C(C1)C1C=CC2C2C=CC12 (stereo unspecified) was 101 % of control

Note to self: T/C recorded for S=C1CCNCC1 was 90 % of control

Note to self: T/C recorded for [Cu+2].[NH-]CC(=O)NC(Cc1ccccc1)C(=O)O.[NH-]CC(=O)NC(Cc1ccccc1)C(=O)O (stereo unspecified) was 100 % of control

###

System: P388 leukemia ip, CD2F1 mice, survival T/C
measurement.protocol: NCI In Vivo Anticancer Drug Screen. Data for tumor model P388 Leukemia (intraperitoneal) in CD2F1 (CDF1) mice
measurement.parameters: endpoint: median survival time; dose: 25.0 mg/kg/injection; schedule: Q01DX005 (ip); vehicle: saline with Tween-80; higher = longer survival
Inconclusive results and toxic doses are left out.
Recorded T/C for the following compounds

CCCCOC(OCCCC)C(C)N (stereo not given) | 106 % of control
CCN(CC)Cc1cc2[nH]c3c4ccc(Cl)cc4ncc3c2cc1OC (tested in a mixture with another compound) | 109 % of control [middle of 4 runs]
CC(=O)Nc1ccc(SSc2ccc(NC(C)=O)c3cccnc23)c2ncccc12 | 95 % of control
CCOC(=O)c1cc2c(=O)c3c(ccc4ccccc43)oc2n(C)c1=O | 94 % of control

Note to self: T/C recorded for Nc1ccc2cc(S(=O)(=O)O)cc(O)c2c1N=Nc1ccc(NC(=O)c2ccc(C(=O)Nc3ccc(N=Nc4c(N)ccc5cc(S(=O)(=O)O)cc(O)c45)c(S(=O)(=O)O)c3)cc2)cc1S(=O)(=O)O was 96 % of control

Note to self: T/C recorded for C/C(=N\NC(=S)N1CCCCCC1)c1nccs1 was 100 % of control

###

Test system: P388 leukemia ip, CD2F1 mice, survival T/C
measurement.protocol: NCI In Vivo Anticancer Drug Screen. Data for tumor model P388 Leukemia (intraperitoneal) in CD2F1 (CDF1) mice
measurement.parameters: endpoint: median survival time; dose: 100.0 mg/kg/injection; schedule: Q01DX005 (ip); vehicle: saline with Tween-80; higher = longer survival
Description: The antitumor activity of compounds was measured in mice bearing transplantable tumors. Survival or tumor size were measured and the results are expressed as the measurement made in the treated group (T) divided by the measurement made in the vehicle treated control group (C). The tumor model used in this assay is P388 Leukemia (intraperitoneal) in CD2F1 (CDF1) mice
Toxic doses and inconclusive results are not listed.
parameter: T/C

Sample records with T/C:
COC(=O)CCC(=O)C(C#N)c1nc2ccccc2s1 (configuration not stated) | 92 % of control
CCS/C(C#N)=C(/C)c1ccccc1 | 106 % of control
CCN(SSN(CC)S(=O)(=O)c1ccc(C)cc1)S(=O)(=O)c1ccc(C)cc1 | 107 % of control
COCCC1OCC(CCl)O1 (configuration not stated) | 99 % of control
O=c1sc2ccccc2nc1NNc1ccccc1 | 90 % of control
CCCCN(CC)CCCCCCCCCCN1CCCc2cc(OC)ccc21 | 107 % of control
CSC(=O)Nc1ccc(C)c(NC(=O)SC)c1 | 100 % of control
COc1cc(/C=C/C(=O)c2ccccc2O)cc(OC)c1OC | 110 % of control

For the compound COC(=O)Nc1ccc(C2OCCN2C(=O)Nc2ccc(Cl)cc2)cc1 (configuration not stated) , the measured T/C on P388 leukemia ip, CD2F1 mice, survival T/C was 88 % of control

For the compound C=CCN1C(=O)c2cc(Cl)c(Cl)cc2C1=O , the measured T/C on P388 leukemia ip, CD2F1 mice, survival T/C was 87 % of control

For the compound ON1c2ccc3ccccc3c2C=CC1(c1ccccc1)c1ccccc1 , the measured T/C on P388 leukemia ip, CD2F1 mice, survival T/C was 103 % of control

For the compound CC(C)CC(=O)C(c1ccccc1)C(CC(C)C)C(=O)C1C(c2ccccc2)CC(=O)C(C(C)C)C1c1ccccc1 (configuration not stated) , the measured T/C on P388 leukemia ip, CD2F1 mice, survival T/C was 92 % of control

###

System: P388 leukemia ip, CD2F1 mice, survival T/C
measurement.protocol: NCI In Vivo Anticancer Drug Screen. Data for tumor model P388 Leukemia (intraperitoneal) in CD2F1 (CDF1) mice
measurement.parameters: endpoint: median survival time; dose: 200.0 mg/kg/injection; schedule: Q04DX003 (ip); vehicle: Klucel (hydroxypropylcellulose) (HPC); higher = longer survival
Toxic doses and inconclusive results are not listed.
parameter: T/C

Sample records with T/C:
Nc1cccc2c1C(=O)c1ccccc1C2=O | 91 % of control
C=C(C)c1nc(N)nc(NCCCC)n1 | 100 % of control
COc1ccc(/C(=N/N)c2ccccc2)cc1 | 114 % of control
O=C1OCCOCCOCCOCCOCCOC(=O)c2cccc1n2 | 103 % of control

Note to self: T/C recorded for COc1cc2c(c(OC)c1OC)CCC/C2=N\NC(N)=S was 92 % of control

###

Test system: P388 leukemia ip, CD2F1 mice, survival T/C
measurement.protocol: NCI In Vivo Anticancer Drug Screen. Data for tumor model P388 Leukemia (intraperitoneal) in CD2F1 (CDF1) mice
measurement.parameters: endpoint: median survival time; dose: 100.0 mg/kg/injection; schedule: Q01DX009 (ip); vehicle: suspension in saline; higher = longer survival
Inconclusive results and toxic doses are left out.
parameter: T/C

Sample records with T/C:
O=C1CSC(=S)N1c1ccccc1C(F)(F)F | 96 % of control
CC1(CSc2ccccc2)CC(=O)N1 (centres undefined) | 98 % of control
O=C(O)C1CSC(c2ccc(Cl)cc2)N1 (centres undefined) | 95 % of control

Note to self: T/C recorded for Fc1cccc(NC(=S)SCc2ccc(Cl)cc2)c1 was 103 % of control

###

Tested on: P388 leukemia ip, CD2F1 mice, survival T/C
measurement.protocol: NCI In Vivo Anticancer Drug Screen. Data for tumor model P388 Leukemia (intraperitoneal) in CD2F1 (CDF1) mice
measurement.parameters: endpoint: median survival time; dose: 200.0 mg/kg/injection; schedule: Q01DX005 (ip); vehicle: saline; higher = longer survival
Toxic doses and inconclusive results are not listed.
parameter: T/C

Sample records with T/C:
CN(C)CCC(C#N)(CCN(C)C)c1ccccc1 | 106 % of control
CC(O)CCC1CCCCN1 (stereo not drawn) | 101 % of control
C[n+]1cccc2c1-c1c(ccc[n+]1C)C2 | 104 % of control

Note to self: T/C recorded for OCCN(CCO)Cc1nc2cc(Cl)c(Cl)cc2[nH]1 was 90 % of control

Note to self: T/C recorded for CC(N)C(=O)NC(Cc1ccccc1)C(=O)O (stereo not drawn) was 105 % of control

Note to self: T/C recorded for CN1CCC/C1=N\S(=O)(=O)/N=C1\CCCN1C was 99 % of control

Note to self: T/C recorded for COC1C=C(C)C(=O)O1 (stereo not drawn) was 101 % of control

Note to self: T/C recorded for O=S(=O)(O)CCCOC1COc2ccccc2OCCOCCOc2ccccc2OC1 was 98 % of control

Note to self: T/C recorded for Cc1nnc(N)c(C#N)c1C was 93 % of control

Note to self: T/C recorded for CCN(CC)Cc1cc(Nc2nc(/C=C/c3ccc(Cl)cc3)nc(Cl)c2-c2ccc(Cl)cc2)ccc1O was 103 % of control

Note to self: T/C recorded for CC(CN(C)C)OC(=O)c1ccc(Cl)cc1Cl (stereo not drawn) was 100 % of control

Note to self: T/C recorded for CCCCCCCCN1COC2CCc3ccccc3C21 (stereo not drawn) was 100 % of control

Note to self: T/C recorded for N#CCCN(CCC#N)C(CCC(=O)O)C(=O)O (stereo not drawn) was 101 % of control

###

Tested on: P388 leukemia ip, CD2F1 mice, survival T/C
measurement.protocol: NCI In Vivo Anticancer Drug Screen. Data for tumor model P388 Leukemia (intraperitoneal) in CD2F1 (CDF1) mice
measurement.parameters: endpoint: median survival time; dose: 30.0 mg/kg/injection; schedule: Q01DX005 (ip); vehicle: saline
Inconclusive results and toxic doses are left out. How the source made its calls: active means survival T/C of 150% or more; inactive means T/C below 125% in these data.
Select the matching outcome among active, inactive

Examples with answers:
CCN(CC)CCO/N=C1\CC(c2ccc(OC)c(OC)c2)Oc2ccccc21 (stereo not given) | inactive
FC(F)(F)SN1COCN(SC(F)(F)F)C1 | inactive
O=c1n(CC2CO2)c(=O)n(CC2CO2)c(=O)n1CC1CO1 (stereo not given) | active
CC(C)c1nccn1Cc1ccccc1 | inactive

Here is the next item to consider.
Recorded call for CN1CC=C(c2ccccc2)C(O)C1 (stereo not given) ?
inactive
